- protocol text: chemical genetic growth profiling, strain panel (AID 1159580);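 note: tested at 20 µM; growth read once vehicle control cultures reached saturation at 30 °C; 1 = growth at the plate median or of vehicle wells; lower values mean less growth of the strain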
- protocol conditions: S. cerevisiae deletion strains, growth OD, locus YJL166W, strain qcr8, stronger effect = lower value
Out of some 5,500 compounds screened, about 2,000 (36%) were called active. Not shown: some 18% with an inconclusive outcome. This is one part of the list.
The molecules listed here are annotated with their normalized growth.
readout name: normalized growth

- molecule: "CCOC(=O)NNc1nncc2ccccc12"
  readout name: "normalized growth"
  measured result: 0.983
- molecule: "CC(C)CCCC(C)[C@H]1CCC2C3CC=C4CC(=O)CC[C@]4(C)C3CC[C@@]21C (some centres undefined)"
  readout name: "normalized growth"
  measured result: 0.986
- molecule: "CC(C)C[C@@H](CN)CC(=O)O"
  readout name: "normalized growth"
  measured result: 1.01
- molecule: "CC(C)CCCC(C)C1CCC2C3CC(=O)[C@H]4C[C@@H](O)CC[C@]4(C)C3CC[C@]12C (some centres undefined)"
  readout name: "normalized growth"
  measured result: 1.06
- molecule: "CC(=O)c1cc(CC=C(C)C)c(O)c(CC=C(C)C)c1"
  readout name: "normalized growth"
  measured result: 1.02
- molecule: "CN1CCN(C(=O)OC2c3nccnc3C(=O)N2c2ccc(Cl)cn2)CC1 (centres undefined)"
  readout name: "normalized growth"
  measured result: 0.998
- molecule: "C/C1=C/CC(C)(C)/C=C/C/C(C)=C/CC1"
  readout name: "normalized growth"
  measured result: 0.985
- molecule: "CC(C)CCCC(C)[C@H]1CCC2C3CC=C4C[C@@H](O)CC[C@]4(C)C3CC[C@@]21C (some centres undefined)"
  readout name: "normalized growth"
  measured result: 0.985
- molecule: "Oc1cccc(O)c1"
  readout name: "normalized growth"
  measured result: 1

---

- protocol text: chemical genetic growth profiling, strain panel (AID 1159580);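 note: tested at 20 µM; growth read once vehicle control cultures reached saturation at 30 °C; 1 = growth at the plate median or of vehicle wells; lower values mean less growth of the strain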
- protocol conditions: S. cerevisiae deletion strains, growth OD, locus YAL026C, strain drs2, stronger effect = lower value
The campaign covered roughly 5,500 compounds. About 2,000 (36%) were called active. Roughly 18% stayed inconclusive and do not appear here. The list shows a part of the results.
Each entry below carries its reported normalized growth.

- compound: "CN(C)CCCN1c2ccccc2Sc2ccc(C(F)(F)F)cc21"
  normalized growth: 0.329
- compound: "CC(C)CCCC(C)[C@H]1CCC2C3C(=O)C=C4C[C@@H](O)CC[C@]4(C)C3CC[C@@]21C (stereo partly specified)"
  normalized growth: 1.02
- compound: "CC1(C)CC2C1CC[C@]1(CBr)CCC3C(CC(=O)O)C(=O)O[C@@]32C1 (stereo partly specified)"
  normalized growth: 1.02
- compound: "CN(C)CCCN1c2ccccc2CCc2ccc(Cl)cc21"
  normalized growth: 0.77
- compound: "CN(C)CCCN1c2ccccc2CCc2ccccc21"
  normalized growth: 1
- compound: "CN(C)CCCN1c2ccccc2Sc2ccccc21"
  normalized growth: 0.936

---

- protocol text: chemical genetic growth profiling, strain panel (AID 1159580);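 note: tested at 20 µM; growth read once vehicle control cultures reached saturation at 30 °C; 1 = growth at the plate median or of vehicle wells; lower values mean less growth of the strain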
- protocol conditions: S. cerevisiae deletion strains, growth OD, locus YGL173C, strain kem1
In all, about 5,500 compounds went through this assay and about 2,000 (36%) were called active. Roughly 18% stayed inconclusive and do not appear here. Cut-off read from the data, not from the text of the source: active = normalized growth mostly below about 0.91 (no sharp cut-off); inconclusive = no clear call, values can overlap the other calls; inactive = mostly above about 0.92. The list shows a part of the results.
Outcomes: active, inactive

- compound: "Nc1ccc(S(=O)(=O)NC(=O)c2ccccc2)cc1"
  classification: "inactive"
- compound: "Cc1nc(N)cc(C[n+]2csc(CCO)c2C)n1"
  classification: "inactive"
- compound: "C=C1C[C@]23C[C@@]1(O)CC[C@H]2[C@@]12C=C[C@H](O)[C@@](C)(C(=O)O1)[C@H]2[C@@H]3C(=O)O"
  classification: "inactive"
- compound: "CCN1CCN(C(=O)NC(C(=O)N[C@@H]2C(=O)N3[C@@H]2SC(C)(C)[C@@H]3C(=O)O)c2ccccc2)C(=O)C1=O (some centres undefined)"
  classification: "inactive"
- compound: "NS(=O)(=O)c1cc2c(cc1Cl)NC(CSCc1ccccc1)=NS2(=O)=O"
  classification: "inactive"
- compound: "CC(=O)N[C@@H](Cc1c[nH]c2ccccc12)C(N)=O"
  classification: "inactive"
- compound: "CS(=O)(=O)Nc1ccc([N+](=O)[O-])cc1Oc1ccccc1"
  classification: "inactive"
- compound: "CC(C)(C)NC[C@H](O)c1ccc(O)c(CO)c1"
  classification: "inactive"
- compound: "COC1CC2CCC(C)C(O)(O2)C(=O)C(=O)N2CCCCC2C(=O)OC(C(C)CC2CCC(O)C(OC)C2)CC(=O)C(C)/C=C(\\C)C(O)C(OC)C(=O)C(C)CC(C)/C=C/C=C/C=C/1C (centres undefined)"
  classification: "active"
